Record set: IC50 | IRAK4 (Homo sapiens (Human), UniProt Q9NWZ3) | literature, multiple sources.
Report only the number, with the unit nM understood.

The following compounds have reported results that may help.
# Compound, IC50 (nM)
rows = [
    ("CC(C)(O)c1cc2nn(C3CCN(CC(C)(C)N4CCN(c5ccc6c(c5)C(=O)N(C5CCC(=O)NC5=O)C6=O)CC4)CC3)cc2cc1NC(=O)c1cccc(C(F)(F)F)n1 (stereo not drawn)", 32.7),
    ("CC1COCCC1Nc1cc(Nc2ccc3ncsc3c2)ncc1C(=O)NC[C@@H](F)C(C)(C)O (stereo partly drawn)", 35.7),
    ("CC(C)Nc1cc(-n2ncc3cc(C#N)cnc32)ncc1-c1cc([C@H]2CCNC2)no1", 3),
    ("CCCn1cc(-c2cnc(-n3cnc4cc(C#N)cnc43)cc2N[C@@H](C)CO)nn1", 2),
]

Param item = COc1cc2nn([C@H]3C[C@H](C(=O)OC)C3)cc2cc1NC(=O)c1cccc(C(F)(F)F)n1 ; retrieve measured IC50.
11

Param item = CC(C)Nc1cc(Nc2ccc3ncsc3c2)ncc1C(=O)NC1CCCC(C(C)(C)O)C1 (stereo not drawn) ; retrieve measured IC50.
13.1

Param item = CC(C)(F)CNc1cc(Nc2ncc3ncsc3c2F)ncc1C(=O)NC1CCC(C(C)(C)O)CC1 (stereo not drawn) ; retrieve measured IC50.
8.2

---

Record set: log10 of IC50 | IRAK4 (Homo sapiens (Human), UniProt Q9NWZ3) | literature, multiple sources.
The common logarithm of IC50 in nM is what is listed.

The following compounds have reported results that may help.
# Chemical Smiles, Metric, Meas Value
data = [
    ("CC[C@H](C)Oc1nc2nc([C@@]34CC[C@@](C)(C3)OC4)cn2cc1C(=O)Nc1cccn(C2CC2)c1=O", "log10 of IC50", -0.40),
    ("COCCNC(=O)c1cnc2sc(-c3cncs3)cc2c1NC(C)C", "log10 of IC50", 1.48),
    ("COc1cc2nn(C3CCN(CCN(C)C)CC3)cc2cc1NC(=O)c1cccc(C(F)(F)F)n1", "log10 of IC50", 0.00),
    ("CC(C)Nc1cc(-n2ncc3cc(C#N)cnc32)ncc1-c1cn(Cc2nc3ccccc3[nH]2)nn1", "log10 of IC50", 1.54),
]

Please look at the following compound next.
Form entry - test system: IRAK4 (Homo sapiens (Human), UniProt Q9NWZ3); read-out: log10 of IC50; compound: COc1cc2nn(C3CCN(CCCC4CCN(C(=O)c5ccc(OC)c(N6CCC(=O)NC6=O)c5)CC4)CC3)cc2cc1NC(=O)c1cccc(C(F)(F)F)n1
0.98

---

Record set: pIC50 | UniProt Q9NWZ3 | literature, multiple sources.
pIC50 (log units): -log10 of the concentration in mol/L.

The following molecules have reported results that may help.
# Molecule, Assay System, pIC50
measured = [
    ("CC(C)Nc1c(C(=O)NCCC(C)(C)O)cnn2cc(-c3ccncc3F)cc12", "UniProt Q9NWZ3", 8.37),
    ("CC(C)Nc1c(C(=O)NCCC(C)(C)O)cnc2ccc(-c3cn[nH]c3)cc12", "UniProt Q9NWZ3", 8.10),
]

Form entry - test system: UniProt Q9NWZ3; read-out: pIC50; molecule: COC(=O)[C@H]1C[C@@H](Nc2nc(Nc3cc(C)nc(C)c3)ncc2-c2nc3ccccc3s2)[C@H](OC)[C@@H]1O
8.68

Form entry - test system: UniProt Q9NWZ3; read-out: pIC50; molecule: CN1CCC(n2cc3cc(NC(=O)c4cccc(C(F)(F)F)n4)c(C(N)=O)cc3n2)CC1
8.70

Form entry - test system: UniProt Q9NWZ3; read-out: pIC50; molecule: CC(C)Nc1cc(-n2ncc3cc(C#N)cnc32)ncc1-c1cn(Cc2ccccc2)nn1
7.82

Form entry - test system: UniProt Q9NWZ3; read-out: pIC50; molecule: NC(=O)c1nn(-c2ccccn2)cc1NC(=O)c1cnn2ccc(N3CCNCC3)nc12
6.00

Form entry - test system: UniProt Q9NWZ3; read-out: pIC50; molecule: CC(C)(O)[C@H](F)CNC(=O)c1cnc(Nc2ccc3ncsc3c2)cc1NC1CCC(O)C1 (stereo partly shown)
8.28

Form entry - test system: UniProt Q9NWZ3; read-out: pIC50; molecule: CCCc1cn(-c2cnc(-n3cnc4cc(C#N)cnc43)cc2N[C@H](C)CO)nn1
6.80

Form entry - test system: UniProt Q9NWZ3; read-out: pIC50; molecule: Nc1cc(-c2ccc3ncnc(N[C@H]4CC[C@H](N5CCOCC5)CC4)c3c2)cnc1Cl
8.00

Form entry - test system: UniProt Q9NWZ3; read-out: pIC50; molecule: CC(C)(O)c1cc2nn(C3CCS(=O)(=O)CC3)cc2cc1NC(=O)c1cccc(C(F)(F)F)n1
8.30

Form entry - test system: UniProt Q9NWZ3; read-out: pIC50; molecule: CCCn1cc(-c2cnc(-n3ncc4cc(C#N)cnc43)cc2Nc2cnn(CC)c2)nn1
7.03

Form entry - test system: UniProt Q9NWZ3; read-out: pIC50; molecule: CC12CCC(c3cn4cc(C(=O)Nc5cccn(C6CC6)c5=O)c(OC5CCC5)cc4n3)(CC1)CO2
9.70

Form entry - test system: UniProt Q9NWZ3; read-out: pIC50; molecule: CC(C)Nc1c(C(=O)NC(CCO)C2CC2)cnc2c1Oc1cc(C#N)ccc1O2 (stereo not shown)
6.66

Form entry - test system: UniProt Q9NWZ3; read-out: pIC50; molecule: CC(C)Nc1cc(-c2cnn3cc(C#N)cnc23)ncc1-n1cc(C(C)(C)O)cn1
6.24
